Molecular target: Melanocortin receptor 5 (Homo sapiens, UniProt P33032)
Sequence (P33032 whole entry): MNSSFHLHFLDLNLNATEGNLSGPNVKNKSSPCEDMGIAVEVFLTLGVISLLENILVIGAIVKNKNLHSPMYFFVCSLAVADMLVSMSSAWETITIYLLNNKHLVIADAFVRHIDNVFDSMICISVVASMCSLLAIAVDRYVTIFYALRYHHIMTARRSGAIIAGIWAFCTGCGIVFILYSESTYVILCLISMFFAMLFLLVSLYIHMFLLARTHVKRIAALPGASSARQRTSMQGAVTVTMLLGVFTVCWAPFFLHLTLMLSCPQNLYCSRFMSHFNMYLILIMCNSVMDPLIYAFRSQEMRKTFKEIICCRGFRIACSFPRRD
Assay: Displacement of [125I]NDP-MSH from human recombinant MC5 receptor expressed in Sf9 cells
pKi: −log10 of the molar value.

compound	pKi
CC1CC(CC2CCC(N(Cc3ccccc3)C(=O)CCCc3c[nH]c4ccccc34)C(C)C2)CCC1N (stereo in doubt; form 4)	5.25
NCCCCCN(Cc1ccccc1)C(=O)[C@@H](N)Cc1ccc2ccccc2c1	4.47
NCCCCCN(Cc1ccc2ccccc2c1)C(=O)CCc1c[nH]c2ccccc12	5.14
NCCCN(C/C=C/c1ccccc1)C(=O)c1c[nH]c2ccccc12	4.92
NCCCCCN(Cc1ccc2c(c1)OCO2)C(=O)CCCc1c[nH]c2ccccc12	4.64
CCC(c1ccccc1)N(CCCCN)C(=O)CCc1c[nH]c2ccccc12 (stereo not given)	4.89
NCc1ccc(CN(Cc2ccc3ccccc3c2)C(=O)CCCc2c[nH]c3ccccc23)cc1	4.77
NCCCN(C/C=C/c1ccccc1)C(=O)CCc1c[nH]c2ccccc12	4.96
NCCN(C(=O)COc1ccc2ccccc2c1)C1CCC2(CCCCC2)CC1	5.47
NCCCCCCN(Cc1ccccc1)C(=O)CCCc1c[nH]c2ccccc12	5.42
